System: SK‐Mel28 cutaneous melanoma
testProtocol: MTT assay, SK‐Mel28
Type: cell-based
conditionDescription: SK‐Mel28, 10 μM, 48 h
quantity: Cell growth percent [%] (%)
Provide the reading as a plain figure in %.

// query What is its Cell growth percent [%] for SK‐Mel28 cutaneous melanoma? Entry: CCOC(=O)c1cnn(CC(C)OC(=O)Nc2cccc(C(F)(F)F)c2)c1N (stereo not drawn)
// result 90.77

// query What is its Cell growth percent [%] for SK‐Mel28 cutaneous melanoma? Entry: CCOC(=O)c1cnn(CC(C)OC(=O)Nc2cccc(F)c2)c1N (stereo not drawn)
// result 115.09

* * *

targetEntity: recombinant USP‐7 (Homo sapiens, UniProt Q93009)
Construct: purchased BPS Bioscience 79,256
Sequence (Q93009 whole entry): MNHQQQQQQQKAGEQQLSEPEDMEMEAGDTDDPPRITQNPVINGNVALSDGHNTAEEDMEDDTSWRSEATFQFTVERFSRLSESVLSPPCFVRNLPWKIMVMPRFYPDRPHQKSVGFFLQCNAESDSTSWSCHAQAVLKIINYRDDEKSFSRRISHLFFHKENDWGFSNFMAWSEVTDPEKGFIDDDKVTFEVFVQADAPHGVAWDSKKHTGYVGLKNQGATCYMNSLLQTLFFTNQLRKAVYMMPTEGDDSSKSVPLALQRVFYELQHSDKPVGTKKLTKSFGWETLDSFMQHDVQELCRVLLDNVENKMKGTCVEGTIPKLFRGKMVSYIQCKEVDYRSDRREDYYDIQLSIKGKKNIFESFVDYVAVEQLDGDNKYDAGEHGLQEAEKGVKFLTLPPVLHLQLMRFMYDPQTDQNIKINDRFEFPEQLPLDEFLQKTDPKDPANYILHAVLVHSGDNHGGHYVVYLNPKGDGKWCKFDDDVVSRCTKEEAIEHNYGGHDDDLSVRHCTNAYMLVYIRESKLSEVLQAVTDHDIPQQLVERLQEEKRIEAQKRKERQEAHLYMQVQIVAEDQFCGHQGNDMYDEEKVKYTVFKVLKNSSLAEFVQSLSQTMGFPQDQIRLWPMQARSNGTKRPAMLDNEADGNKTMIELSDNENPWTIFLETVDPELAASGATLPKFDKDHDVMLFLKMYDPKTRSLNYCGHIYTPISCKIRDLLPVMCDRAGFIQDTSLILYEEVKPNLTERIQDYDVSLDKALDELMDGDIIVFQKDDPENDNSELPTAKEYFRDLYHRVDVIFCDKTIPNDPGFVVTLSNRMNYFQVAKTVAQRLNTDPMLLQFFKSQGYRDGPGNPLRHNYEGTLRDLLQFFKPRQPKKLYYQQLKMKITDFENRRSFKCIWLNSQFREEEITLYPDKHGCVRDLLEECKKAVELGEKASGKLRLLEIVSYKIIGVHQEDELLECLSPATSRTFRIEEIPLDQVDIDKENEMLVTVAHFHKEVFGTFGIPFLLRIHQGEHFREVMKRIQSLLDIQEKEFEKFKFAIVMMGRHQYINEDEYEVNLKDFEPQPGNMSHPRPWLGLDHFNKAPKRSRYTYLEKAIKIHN
testProtocol: USP‐7 fluorescence-based enzymatic assay (Ub‐AMC)
Type: biochemical
conditionDescription: recombinant USP‐7, Ubiquitin–AMC substrate, 30 min preincubation; average of three separate experiments
IC50 reference
Provide the reading as a plain figure in µM.

Sample records with IC50:
{"columns": ["compound", "IC50 / µM"],
 "data": [
  ["CCOC(=O)c1cnn(CC(C)OC(=O)Nc2ccccc2F)c1N (centres unmarked)", 2.19],
  ["CCOC(=O)c1cnn(CC(C)O)c1NC(=O)Nc1cccc(F)c1 (centres unmarked) [STIRUR‐41, reference compound]", 2.77],
  ["CCOC(=O)c1cnn(CC(C)OC(=O)Nc2ccc(F)cc2)c1N (centres unmarked)", 1.8],
  ["CCOC(=O)c1cnn(CC(C)OC(=O)Nc2cccc(C(F)(F)F)c2)c1N (centres unmarked)", 1.31]
]}

The record that follows has no IC50 shown yet.
// query Param item = CCOC(=O)c1cnn(CC(C)OC(=O)Nc2cccc(F)c2)c1N (centres unmarked) ; retrieve measured IC50.
// result 1.48

The reported numbers originate from paper PMC12368478.
